Tested on: B cell
protocol-summary: Induction of anti-IgM-stimulated human CD20+ B cell activation at 10 to 1000 uM assessed as increase in CD69 expression measured as mean fluorescence intensity AUC by flow cytometry analysis
Type: functional, cell-based
measurement-conditions: dose 10-1000 µM
Known AUC of a selection of molecules
Please reply with the value in numeric form only.

C[C@H](Cc1nncn1C)c1cccc(N2Cc3c(cc(CN4CC[C@H](F)C4)cc3C(F)(F)F)C2=O)c1 | 1.01

What is its AUC for B cell? Entry: C[C@H](Cc1nncn1C)c1cccc(NC(=O)c2n[nH]c3c2CCC3)c1
0.5

Please do the same for C[C@H](Cc1nncn1C)c1cccc(N2Cc3c(cc(CN4CC[C@](C)(O)C4)cc3C(F)(F)F)C2=O)c1 as well.
0.5

Ok, now Cn1cnnc1CC1(c2cccc(N3Cc4c(cc(CN5CC[C@H](C#N)C5)cc4C(F)(F)F)C3=O)c2)COC1
1.01

====

Listed compounds paired with reported fold change (FC)
protocol-summary: Induction of anti-CD3/CD28 antibodies-stimulated human T cell activation at 1 uM assessed fold increase in IL-2 secretion measured by ELISA assay
Assay type: functional, T cell line
Answer with a bare number; do not write a unit.

The following compounds have reported results that may help.
Cc1cc(C(=O)Nc2cccc(C3(Cc4nncn4C)COC3)c2)nc(C2CCC2)n1 | 5
Cn1cnnc1OC1(c2cccc(N3Cc4c(cc(CN5CCC(F)CC5)cc4C(F)(F)F)C3=O)c2)COC1 | 2.51
COc1nc(C(=O)Nc2cccc([C@H](C)Sc3nncn3C)c2)cc2ccccc12 | 5
Cc1cc(C(=O)Nc2cc([C@H](C)Sc3nncn3C)ccn2)nc(C(F)(F)F)c1 | 1.01
Cc1cc(C(=O)Nc2cccc([C@H](C)Cc3nncn3C)c2)nc2ccnn12 | 1.01
Cn1cnnc1CC(C)(C)c1cccc(NC(=O)c2cc(C(=O)N3CC[C@H](O)C3)cc(C(F)(F)F)n2)c1 | 2.51
C[C@H](Cc1nncn1C)c1cccc(N2Cc3c(cc([C@@H]4CCCNC4)cc3C(F)(F)F)C2=O)c1 | 5
Cn1cnnc1CC1(c2cccc(N3Cc4c(cccc4C(F)(F)F)C3=O)c2)CC(F)(F)C1 | 5

// moving on: another record for fold change (FC)
Can you share its fold change (FC)? I mean this compound: Cc1ccc(C(=O)Nc2cccc([C@H](C)Cc3nnc[nH]3)c2)nc1C1CC1
1.01

====

protocol-summary: Induction of anti-CD3/CD28 antibodies-stimulated human anergic T cell activation at 1.11 uM assessed fold increase in IFN-gamma secretion measured by ELISA assay
Type: functional, T cell line
endpoint-label: fold change (FC)

C[C@H](Cc1nncn1C)c1cccc(N2Cc3c(cc(CN4CC[C@](C)(O)C4)cc3C(F)(F)F)C2=O)c1 | >4.01
Cc1cc(C(=O)Nc2cccc(C3(Cc4nncn4C)COC3)c2)nc(C2CC2)n1 | 2.51
Cn1cnnc1[C@@H]1C[C@@H]1c1cccc(N2Cc3c(ccnc3C(F)(F)F)C2=O)c1 | <=2.5
Cn1cnnc1CC1(c2cccc(NC(=O)c3cc(CN4CCC5(CC5)C4)cc(C4CC4)n3)c2)COC1 | >4.01

====

// values below are reported IC50
test-target: E3 ubiquitin-protein ligase CBL-B (Homo sapiens)
Sequence (Q13191 whole entry, the tested form may be a part): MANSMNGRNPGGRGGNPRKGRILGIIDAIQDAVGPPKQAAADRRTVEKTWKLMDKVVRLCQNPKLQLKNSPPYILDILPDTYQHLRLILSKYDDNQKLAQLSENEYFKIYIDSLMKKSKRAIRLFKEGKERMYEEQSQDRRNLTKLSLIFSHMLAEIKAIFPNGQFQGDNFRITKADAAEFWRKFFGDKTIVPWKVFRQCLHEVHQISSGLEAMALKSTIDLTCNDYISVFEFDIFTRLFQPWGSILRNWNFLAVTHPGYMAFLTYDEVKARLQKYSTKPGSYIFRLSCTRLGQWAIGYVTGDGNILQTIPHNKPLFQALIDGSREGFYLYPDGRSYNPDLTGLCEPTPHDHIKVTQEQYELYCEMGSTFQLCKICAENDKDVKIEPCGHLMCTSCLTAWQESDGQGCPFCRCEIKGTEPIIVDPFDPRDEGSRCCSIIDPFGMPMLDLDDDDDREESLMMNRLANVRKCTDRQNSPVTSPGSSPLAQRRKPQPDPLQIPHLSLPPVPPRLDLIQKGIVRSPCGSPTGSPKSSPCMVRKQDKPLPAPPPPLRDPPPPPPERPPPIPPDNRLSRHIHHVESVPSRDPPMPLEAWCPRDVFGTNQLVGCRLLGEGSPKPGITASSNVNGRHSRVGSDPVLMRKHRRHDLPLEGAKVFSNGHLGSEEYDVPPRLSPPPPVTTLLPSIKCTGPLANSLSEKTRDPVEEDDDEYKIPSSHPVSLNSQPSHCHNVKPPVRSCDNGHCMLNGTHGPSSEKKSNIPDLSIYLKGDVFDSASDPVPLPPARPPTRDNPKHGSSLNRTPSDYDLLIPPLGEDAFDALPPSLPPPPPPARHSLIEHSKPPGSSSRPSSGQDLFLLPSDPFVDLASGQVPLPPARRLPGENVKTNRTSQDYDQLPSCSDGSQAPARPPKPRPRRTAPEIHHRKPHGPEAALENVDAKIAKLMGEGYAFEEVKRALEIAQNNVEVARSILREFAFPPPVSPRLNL
protocol-summary: Inhibition of N-terminal Avi-tagged human CBL-B (36 to 427 residues) incubated with 30 nM Src kinase for 1.5 hrs followed by incubation with fluorescently labeled UbcH5B-Ub for 1 hr and measured by TR-FRET assay

Here's what some known entries look like.
C[C@H](Sc1nncn1C)c1cccc(NC(=O)c2ccc3ccccc3n2)c1 | ≤ 1 µM
COc1ccc(C(=O)Nc2cccc(C(C)Sc3nncn3C)c2)cc1 (stereo not drawn) | > 10 µM
COc1ccccc1C(=O)Nc1cccc(C(C)Sc2nncn2C)c1 (stereo not drawn) | > 10 µM
Cc1ccc2cc(C(=O)Nc3cccc(C(C)Sc4nncn4C)c3)cnc2c1 (stereo not drawn) | > 10 µM
Cc1nc2cc(C(C)Sc3nncn3C)cc(N)c2o1 (stereo not drawn) | ≥ 3 µM

Consider the compound C[C@H](Sc1nncn1C)c1ccnc(N)c1 and give its measured IC50.
≥ 3 µM

Input CC(Sc1nncn1C)c1cccc(NC(=O)c2ccc3cnccc3c2)c1 (stereo not drawn)
> 10 µM

Follow-up item: CC(Sc1nncn1C)c1cccc(NC(=O)c2cnc3ccccc3c2)c1 (stereo not drawn)
≥ 3 µM

Repeat for the following compound: C[C@@H](Sc1nncn1C)c1cccc(NC(=O)c2ccc3ccccc3n2)c1
> 10 µM

Continue with CC(Sc1nncn1C)c1cccc(NC(=O)c2ccncn2)c1 (stereo not drawn)
> 10 µM

# iterate: COc1cccc(C(=O)Nc2cccc(C(C)Sc3nncn3C)c2)c1 (stereo not drawn)
> 10 µM

# repeat for CC(Sc1nncn1C)c1cccc(NC(=O)c2ccc3ncccc3c2)c1 (stereo not drawn)
> 10 µM

Further, for CC(Sc1nncn1C)c1cccc(NC(=O)c2ccc3cccnc3c2)c1 (stereo not drawn) ?
> 10 µM

Now this one: CC(Sc1nncn1C)c1cc(CO)cc(NC(=O)c2ccc3ccccc3n2)c1 (stereo not drawn)
> 10 µM

How about this compound: CC(Sc1nncn1C)c1cccc(NC(=O)c2cc3ccccc3c(=O)[nH]2)c1 (stereo not drawn)
> 10 µM

Now this one: CC(Sc1nncn1C)c1cccc(NC(=O)c2ccccn2)c1 (stereo not drawn)
≥ 3 µM

Follow-up entry: Cc1ccc2ccc(C(=O)Nc3cccc(C(C)Sc4nncn4C)c3)nc2n1 (stereo not drawn)
> 10 µM

Next entry: CC(Sc1nncn1C)c1cccc(NC(=O)c2ccc3ccncc3c2)c1 (stereo not drawn)
> 10 µM

====

protocol-summary: Induction of anti-CD3/CD28 antibodies-stimulated human T cell activation at 1 uM assessed fold increase in IL-2 secretion measured by ELISA assay
Format: functional, T cell line
endpoint-label: fold change (FC)

Before answering, review these 6 worked examples.
C[C@@H](c1cc2c(c(C(F)(F)F)c1)CN(c1cccc(C3(Cc4nncn4C)COC3)c1)C2=O)N1CC(C)(F)C1 | >=7.5
C[C@@H](c1cc2c(c(C(F)(F)F)c1)CN(c1cccc(C3(C(F)(F)c4nncn4C)COC3)c1)C2=O)N1CC[C@H](F)C1 | >=7.5
Cn1cnnc1[C@@H]1C[C@@H]1c1cccc(NC(=O)c2nc3c(C(F)(F)F)cccc3[nH]2)c1 | 1.01
Cn1cnnc1CC1(c2cccc(N3Cc4c(cc(CN5CCC6(CC5)CC6)cc4C(F)(F)F)C3=O)c2)COC1 | >=7.5
CC1OCC1Oc1cc([C@H](C)Cc2nncn2C)cc(N2Cc3c(cccc3C(F)(F)F)C2=O)n1 (some centres not stated) | 1.01
Cn1cnnc1C(F)(F)[C@@](C)(F)c1cccc(N2Cc3c(cc(CN4CC[C@H](F)C4)cc3C(F)(F)F)C2=O)c1 | <=1

For Cc1cc(C(=O)Nc2cccc([C@H]3C[C@H]3c3nncn3C)c2)nc(C2CC2)n1 , what is its reported fold change (FC)?
2.51

Next compound: C[C@H](c1cc2c(c(C(F)(F)F)c1)CN(c1cccc(C3(C(F)(F)c4nncn4C)COC3)c1)C2=O)N1CC[C@H](F)C1
>=7.5

Also C[C@H](Cc1nncn1C)c1cccc(NC(=O)c2cccc(S(C)(=O)=O)n2)c1 ?
1.01

Query Cn1cnnc1[C@H](F)C1(c2cccc(N3Cc4c(cc(CN5[C@H]6CC[C@H]5CC(F)C6)cc4C(F)(F)F)C3=O)c2)COC1 (some centres not stated) next
>=7.5

Entry to check: C[C@H]1C=CCN1Cc1cc2c(c(C(F)(F)F)c1)CN(c1cccc(C3(Cc4nncn4C)COC3)c1)C2=O
>=7.5

Note, next up: Cn1cnnc1CC1(c2cccc(N3Cc4c(cc(CN5CCCC6CC65)cc4C(F)(F)F)C3=O)c2)COC1 (configuration not stated)
>=7.5

What would you report for C[C@H](Cc1nncn1C)c1cccc(NC(=O)c2cn3ccnc3cn2)c1 ?
1.01

Then what about the compound Cn1cnnc1CC1(c2cccc(N3Cc4c(cc(CN5Cc6cccnc6C5)cc4C(F)(F)F)C3=O)c2)COC1 ?
>=7.5

Please give the result for CC(c1cc2c(c(C(F)(F)F)c1)CN(c1cccc(C3(Cc4nncn4C)COC3)c1)C2=O)N1CC(S(C)(=O)=O)C1 (configuration not stated) too.
1.01

And what about the compound C[C@H](Cc1nncn1C)c1cccc(NC(=O)c2cccc(CCO)n2)c1 ?
1.01

Let us now turn to CCOC1CCCN(Cc2cc3c(c(C(F)(F)F)c2)CN(c2cccc(C4(Cc5nncn5C)COC4)c2)C3=O)C1 (configuration not stated)
>=7.5

====

protocol-summary: Induction of anti-CD3 antibodies-stimulated human T cell activation at 1 uM assessed fold increase in IL-2 secretion measured by ELISA assay; also: reference of the scale not given here
Type: functional, T cell line
endpoint-label: fold change (FC)
API doc: respond with a numeric literal and nothing else, no unit.

Cc1cc(C(=O)Nc2cccc([C@H](C)Cc3nncn3C)c2)nc2ccnn12 | 0.101

Reported fold change (FC), compound CC(C)Nc1cc([C@H](C)Cc2nncn2C)cc(N2Cc3c(cccc3C(F)(F)F)C2=O)n1 : ____
0.101
